# IC50 values compiled below
tested.on: SIK1 kinase (aa1-303, Thermo Fisher) (Homo sapiens)
Construct: SIK1 kinase (aa1-303, Thermo Fisher); purchased Thermo Fisher
Sequence (P57059 1-303): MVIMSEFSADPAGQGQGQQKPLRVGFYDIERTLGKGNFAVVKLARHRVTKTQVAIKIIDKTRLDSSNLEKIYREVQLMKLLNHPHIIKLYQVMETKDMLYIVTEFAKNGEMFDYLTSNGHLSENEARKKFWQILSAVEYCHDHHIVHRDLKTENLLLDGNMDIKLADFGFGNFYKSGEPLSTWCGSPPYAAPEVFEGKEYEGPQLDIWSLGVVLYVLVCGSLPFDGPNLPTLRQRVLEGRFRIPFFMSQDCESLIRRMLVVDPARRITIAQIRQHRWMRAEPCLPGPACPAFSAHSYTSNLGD
test: Biochemical activities determination for SIK1 protein (TR-FRET)
conditions.used: 110 uM ATP, 0.5 μM STK1 substrate
Just the number in nM, nothing appended.

Before answering, review these 4 worked examples.
Exercise: Give the reported value of IC50 for this record: COc1cc(-c2coc3cc(-c4cn(C)cn4)ccc23)cc2c1C(=O)N(CC(F)(F)F)CC2 [Example 7]
Key: 671

Exercise: Give the reported value of IC50 for this record: COc1cc(-c2coc3cc(OCCCN4CCCCC4)ccc23)cc(OC(F)F)c1C(=O)N[C@@H]1C[C@@H]1F [Compound 84]
Key: 559

Exercise: Give the reported value of IC50 for this record: COc1cc(-c2coc3cc(OCCN4CCCC4)ccc23)cc(OC(F)F)c1C(=O)NCC#N [Compound 66]
Key: 6690

Exercise: Give the reported value of IC50 for this record: CN1CC(n2cc(-c3ccc4c(-c5cc6c(c(OC(F)F)c5)C(=O)N(CC(F)(F)F)CC6)coc4c3)cn2)C1 [Compound 44]
Key: 538

New cases:
Exercise: Give the reported value of IC50 for this record: COc1cc(-c2coc3cc(-c4cnn(C)c4)ccc23)cc2c1C(=O)N(CC#N)CC2 [Compound 20]
Key: 362

Exercise: Give the reported value of IC50 for this record: COc1cc(-c2coc3cc(OCCN4CCC(F)(F)C4)ccc23)cc(OC(F)F)c1C(=O)N[C@@H]1C[C@@H]1F [Compound 87]
Key: 1090
